We begin with a simple list: items and their reported binding signal fold over 6E7 parental.
# system tested: T1, human TREM2 (human, UniProt Q9NZC2 19-174, limits assumed)
# T1 sequence: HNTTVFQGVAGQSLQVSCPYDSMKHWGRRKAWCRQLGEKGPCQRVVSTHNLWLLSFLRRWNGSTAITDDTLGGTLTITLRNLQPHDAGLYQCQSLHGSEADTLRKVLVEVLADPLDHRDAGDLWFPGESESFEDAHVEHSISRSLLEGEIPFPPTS
# assay details: yeast-displayed Fab FACS, 2nd screen 100 nM

| binder | binding signal fold over 6E7 parental [fold] |
| --- | --- |
| V43 (Fab, V domains shown) VH: EVQLVQSGAEVKKPGESLKISCKGSGYSFTSYWIAWVRQMPGKGLEWMGIIYPGDSGTRYSPSFQGQVTISADKSISTAYLQWSSLKASDTAMYFCARQRTFYYDSSDYFDYWGQGTLVTVSS VL: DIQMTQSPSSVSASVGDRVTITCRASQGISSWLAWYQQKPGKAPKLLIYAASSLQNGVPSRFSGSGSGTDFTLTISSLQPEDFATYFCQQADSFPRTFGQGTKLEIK | 0.33 |
| V66 (Fab, V domains shown) VH: EVQLVQSGAEVKKPGESLKISCKGSGTSFTSYWIAWVRQMPGKGLEWMGIIYPGDSDTRYSPSFQGQVTISADKSISTAYLQWSSLKASDTAMYFCARQRTFYYDSSDYFDYWGQGTLVTVSS VL: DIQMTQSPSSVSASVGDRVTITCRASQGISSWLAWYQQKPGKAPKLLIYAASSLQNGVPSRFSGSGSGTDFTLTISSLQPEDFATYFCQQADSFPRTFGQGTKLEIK | 0.74 |
| V94 (Fab, V domains shown) VH: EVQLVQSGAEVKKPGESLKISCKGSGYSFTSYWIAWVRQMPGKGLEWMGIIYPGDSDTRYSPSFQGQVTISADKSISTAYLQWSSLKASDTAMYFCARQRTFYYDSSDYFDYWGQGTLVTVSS VL: DIQMTQSPSSVSASVGDRVTITCRASQGISSWLAWYQQKPGKAPKLLIYAAASLQNGVPSRFSGSGSGTDFTLTISSLQPEDFATYFCQQADSFPRTFGQGTKLEIK | 0.87 |
